Entries and their composite z-score values follow.
- Study System: Albumin (Bos taurus)
- Experimental Details: bovine serum albumin binders on microarray, profiling panel, artefact control for SMM control protein annotation, biochemical, small-molecule microarray, Alexa647 label, 635/667 nm fluorescence (AID 1118);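 further: score merges 667 nm emission intensity and signal-to-noise per printed compound spot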
- Assay Context: BSA-A647 binding, fluorescence 635 nm, higher = more signal
Test Readout: composite z-score

Compound | Study System | Test Readout | Recorded Value
CN1C(=O)C2C=CC(C(O)Cc3ccccc3)N(Nc3ccccc3)C2C1=O (centres undefined) | Albumin (Bos taurus) | composite z-score | 0.554
C=CCOC(=O)[C@H]1[C@@H]2C(=O)O[C@@H](c3ccccc3)[C@@H](c3ccccc3)N2[C@@H](c2ccc(OCCOC(=O)[C@H]3C[C@H]4C(=O)N[C@@H](CC(C)C)C(=O)N4[C@H]3c3ccc(O)cc3)cc2)[C@]12C(=O)Nc1ccc(I)cc12 | Albumin (Bos taurus) | composite z-score | -0.262
CN(C)CCCCCCNC(=O)[C@@H]1C[C@@H]2C(=O)N[C@@H](CCCCN)C(=O)N2[C@@H]1c1cccc(OCCO)c1 | Albumin (Bos taurus) | composite z-score | 1.05
CN1C(=O)C2C=CC(C(O)c3ccccc3)N(Nc3ccccc3)C2C1=O (centres undefined) | Albumin (Bos taurus) | composite z-score | 0.761
[N-]=[N+]=NCc1ccccc1C[C@]1(C(=O)NCC(O)CO)N=C(c2ccc(OCCCO)cc2)O[C@H]1c1ccccc1 (some centres undefined) | Albumin (Bos taurus) | composite z-score | 0.922
COC(=O)c1c(CC[C@@H](CO)NC(=O)N[C@@H](C)Cn2cc(C3(O)CCCCC3)nn2)oc(C(C)=O)c1C(=O)OC | Albumin (Bos taurus) | composite z-score | 0.0745
CN(C)C(=O)[C@]1(Cc2ccccc2N=[N+]=[N-])N=C(c2ccc(OCCCO)cc2)O[C@@H]1c1ccccc1 | Albumin (Bos taurus) | composite z-score | 0.724
C=CCC(OC(C)=O)[C@@H]1[C@@H](N(Cc2ccc(-c3ccccc3)cc2)C(=O)Cc2ccc(F)cc2)c2cc(OCCCO)ccc2N1C(=O)c1ccc(-c2ccccc2)cc1 (some centres undefined) | Albumin (Bos taurus) | composite z-score | 0.127
O=C(c1ccccc1)N1Cc2ccccc2[C@@H]2OC(c3ccc(OCCCO)cc3)=N[C@]2(Cc2ccccc2)C1=O | Albumin (Bos taurus) | composite z-score | 0.383
